- experimentalContext: 362.39 K; 1000 kPa; Liquid; Coaxial cylinder method
resultType: thermal conductivity (W/m/K)
Give just the numeric value; W/m/K need not be written.

Here is how some molecules turned out for thermal conductivity.
COCC(C)OCC(C)OC (stereo unspecified) [2-methoxy-1-(2-methoxy-1-methylethoxy)propane] ... 0.1085
COCCOCCOCCOCCOC [2,5,8,11,14-pentaoxapentadecane] ... 0.1345
COCCOCCOC [2,5,8-trioxanonane] ... 0.1205
COCCOC [1,2-dimethoxyethane] ... 0.1317
c1ccccc1 [benzene] ... 0.1194

Now look at this entry.
COCCOCCOCCOC [2,5,8,11-tetraoxadodecane] yielded thermal conductivity of 0.1303

----------
- experimentalContext: 392.16 K; 1000 kPa; Liquid; Coaxial cylinder method
resultType: thermal conductivity (W/m/K)
State the answer as a number, implicitly in W/m/K.

// solved cases for thermal conductivity follow
COCCOCCOCCOC ... 0.1227
COCCOC ... 0.1183
c1ccccc1 ... 0.1098

Input COCC(C)OCC(C)OC (stereo unspecified) . Output thermal conductivity: 0.099

# thermal conductivity (compound: `COCCOCCOCCOCCOC` ) is 0.1274

Form field thermal conductivity, entry `COCCOCCOC` : 0.1076

----------
- experimentalContext: 302.75 K; 1000 kPa; Liquid; Coaxial cylinder method
# Lookup of reported thermal conductivity keyed by entry
Report only the number, with the unit W/m/K understood.

Example cases with answers are listed next.
COCCOCCOC ... 0.1461
COCC(C)OCC(C)OC (stereo unspecified) ... 0.1242
COCCOCCOCCOC ... 0.1433
COCCOCCOCCOCCOC ... 0.1469
c1ccccc1 ... 0.1409

Record `COCCOC` . Reported thermal conductivity: 0.1605

----------
- experimentalContext: 332.54 K; 1000 kPa; Liquid; Coaxial cylinder method
resultType: thermal conductivity (W/m/K)
Your answer should be a plain number; it is taken to be in W/m/K.

COCCOCCOC ... 0.1324
COCCOCCOCCOCCOC ... 0.1407
c1ccccc1 ... 0.1304
COCCOCCOCCOC ... 0.137
COCCOC ... 0.1452

Let us move to another entry and its thermal conductivity.
Record COCC(C)OCC(C)OC (stereo unspecified) , field thermal conductivity: 0.1169

Data provenance is the NIST ThermoML archive (doi:10.1021/je900641w).
